target: human glioblastoma A172 cells, naturally expressing hTDO2 (Homo sapiens, UniProt P48775); construct: human glioblastoma A172 cells, naturally expressing hTDO2; endogenous in cells; experiment: Cellular assay for TDO2 activity, A172 cells; settings: overnight incubation, kynurenine in supernatant
Sequence (P48775 whole entry): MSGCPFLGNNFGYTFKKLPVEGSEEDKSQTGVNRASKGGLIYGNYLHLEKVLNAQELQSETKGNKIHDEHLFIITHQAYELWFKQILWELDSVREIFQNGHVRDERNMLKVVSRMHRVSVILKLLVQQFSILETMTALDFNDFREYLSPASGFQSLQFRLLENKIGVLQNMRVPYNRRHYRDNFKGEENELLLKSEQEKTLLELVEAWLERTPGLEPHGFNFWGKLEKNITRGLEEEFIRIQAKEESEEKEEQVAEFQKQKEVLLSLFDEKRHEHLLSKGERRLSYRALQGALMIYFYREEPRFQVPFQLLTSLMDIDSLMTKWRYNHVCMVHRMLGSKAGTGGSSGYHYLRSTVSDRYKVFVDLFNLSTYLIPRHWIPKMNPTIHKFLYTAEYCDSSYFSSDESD
We begin with a simple list: items and their reported IC50.
PROPERTY: IC50 (nM)

CS(=O)(=O)NC1CCN(CCS(=O)(=O)NCc2nc3ccc(-c4c[nH]c5cc(F)ccc45)cc3o2)CC1 [Compound 126] : 826
CS(=O)(=O)NCc1nc2ccc(-c3c[nH]c4ccccc34)cc2o1 [Compound 114] : 478
O=C1NC(=O)C(Cc2nc3ccc(-c4c[nH]c5cc(F)ccc45)cc3o2)N1 (stereo not shown) [Compound 129] : 225
c1ccc2c(-c3ccc4[nH]ncc4c3)c[nH]c2c1 [Compound 104, 5-(1H-indol-3-yl)-1H-indazole] : 464

====

Molecular target: human glioblastoma A172 cells, naturally expressing hTDO2 (Homo sapiens, UniProt P48775)
Construct: human glioblastoma A172 cells, naturally expressing hTDO2; endogenous in cells
Experiment: Cellular assay for TDO2 activity, A172 cells
Conditions: overnight incubation, kynurenine in supernatant
Method: The compounds of formula I inhibit the activity of human TDO2 in cells that constitutively express TDO2, such as A172 cells. A172 is a cell line derived from human brain glioblastoma cells. […] The plates were then centrifuged 5 min at 1000 rpm, and 100 μL of the supernatant were collected in a conical plate, 30 uL of TCA 30% were added and a further centrifugated at 3000×g for 10 minutes. […] Kynurenine concentrations were determined by measuring the absorbance at 480 nm. […]
pIC50: −log10 of the molar value.
We begin with a simple list: items and their reported pIC50.
PROPERTY: pIC50

CN1CCN(CCc2nc3ccc(-c4c[nH]c5cc(F)ccc45)cc3o2)CC1 : 6.65
CC(=O)NCc1nc2cc(-c3c[nH]c4cc(F)ccc34)ccc2o1 : 6.44
CS(=O)(=O)NCc1nc2ccc(-c3c[nH]c4ccc(F)cc34)cc2o1 : 6.27
Clc1ccc2[nH]cc(-c3ccc4ocnc4c3)c2c1 : 5.75
NCc1nc2cc(-c3c[nH]c4cc(F)ccc34)ccc2o1 : 5.79
NC(=O)Cn1c(=O)oc2ccc(-c3c[nH]c4cc(F)ccc34)cc21 : 5.48
C[C@@H]1CN(CCc2nc3ccc(-c4c[nH]c5cc(F)ccc45)cc3o2)C[C@@H](C)N1 : 6.32
O=C1Cc2ccc(-c3c[nH]c4cc(F)ccc34)cc2N1 : 6.29
NC(=O)CCc1nc2ccc(-c3c[nH]c4cc(F)ccc34)cc2o1 : 6.81
O=S(=O)(CCN1CCNCC1)NCc1nc2ccc(-c3c[nH]c4cc(F)ccc34)cc2o1 : 6.30
c1ccc2c(-c3ccc4ncoc4c3)c[nH]c2c1 [Compound 109, 6-(1H-indol-3-yl)benzo[d]oxazole] : 6.35
CS(=O)(=O)CCNC(=O)CCn1ncc2cc(-c3c[nH]c4cc(F)ccc34)ccc21 : 6.62
Fc1ccc2c(-c3ccc4nc(CCN5CC6(CNC6)C5)oc4c3)c[nH]c2c1 : 6.21
CS(=O)(=O)NCc1nc2ccc(-c3c[nH]c4cc(Cl)ccc34)cc2o1 : 5.42

====

biological target: human recombinant TDO2 enzyme (Homo sapiens); experiment: Assay for TDO2 enzymatic activity determination; details: human recombinant TDO2, L-Trp 1 mM, kynurenine absorbance at 480 nm
pIC50: −log10 of the molar value.
PROPERTY: pIC50

O=C1Cc2cc(-c3c[nH]c4cc(F)ccc34)ccc2N1 : 6.15
NC(=O)CCc1nc2cc(-c3c[nH]c4cc(F)ccc34)ccc2[nH]1 : 5.88
Nc1nc2ccc(-c3c[nH]c4cc(F)ccc34)cc2o1 : 6.31

====

target: human glioblastoma A172 cells, naturally expressing hTDO2 (Homo sapiens, UniProt P48775); construct: human glioblastoma A172 cells, naturally expressing hTDO2; endogenous in cells; test: Cellular assay for TDO2 activity, A172 cells; details: overnight incubation, kynurenine in supernatant
Classify: True when IC50 is strictly less than 600 nM; False when IC50 is not.

CS(=O)(=O)N1CCC(Cc2nc3ccc(-c4c[nH]c5cc(F)ccc45)cc3o2)CC1 : False
O=C1NC(=O)c2cc(-c3c[nH]c4cc(F)ccc34)ccc21 : True
O=C(O)C1CN(CCc2nc3ccc(-c4c[nH]c5cc(F)ccc45)cc3o2)CCN1 (centres unmarked) : False
C[C@H]1CN(CCc2nc3ccc(-c4c[nH]c5cc(F)ccc45)cc3o2)C[C@H](C)N1 : True
Fc1ccc2c(-c3ccc4nc(CC5CCNCC5)oc4c3)c[nH]c2c1 : True
NC(=O)Cn1c(=O)oc2cc(-c3c[nH]c4cc(F)ccc34)ccc21 : True
Fc1ccc2c(-c3ccc4c(c3)CNC4)c[nH]c2c1 : True

====

Target: murine mastocytoma P815 cells overexpressing hTDO2 (Homo sapiens)
Construct: expressed in transfected cells; host or cells: murine mastocytoma P815 cells
Assay: Cellular assay for TDO2 activity, hTDO2-overexpressing P815 cells
Assay type: cell-based
Conditions: P815 cells overexpressing hTDO2, overnight incubation, kynurenine in supernatant
Experimental: The assay (adapted from Pilotte L et al., Proc Natl Acad Sci USA, 2012, 109(7), 2497-502) was performed in 96-well flat bottom plates seeded with murine mastocytoma P815 cells overexpressing hTDO2 (prepared as described in Pilotte et al., PNAS, 2012, 109(7), 2497-2502), at a concentration of 5×10^4 cells/well in a final volume of 200 μL. […]
pIC50: −log10 of the molar value.
PROPERTY: pIC50

NCc1nc2ccc(-c3c[nH]c4cc(F)ccc34)cc2[nH]1 : 6.17
Fc1ccc2c(-c3ccc4[nH]c(CN5CCOCC5)nc4c3)c[nH]c2c1 : 6.23
CS(=O)(=O)NCc1nc2ccc(-c3c[nH]c4cc(F)ccc34)cc2[nH]1 : 6.34
Fc1ccc2c(-c3ccc4cn[nH]c4c3)c[nH]c2c1 : 6.81
NC(=O)Cc1nc2ccc(-c3c[nH]c4cc(F)ccc34)cc2[nH]1 : 6.20
Fc1ccc2c(-c3ccc4nn(CC5CCNCC5)cc4c3)c[nH]c2c1 : 6.61
CS(=O)(=O)N1CCC(c2nc3ccc(-c4c[nH]c5cc(F)ccc45)cc3[nH]2)CC1 : 6.12
CC(=O)NCCc1nc2ccc(-c3c[nH]c4cc(F)ccc34)cc2[nH]1 : 5.95

====

We begin with a simple list: items and their reported IC50.
target: human recombinant TDO2 enzyme (Homo sapiens, UniProt P48775); test: Assay for TDO2 enzymatic activity determination; conditions: human recombinant TDO2, L-Trp 1 mM, kynurenine absorbance at 480 nm
Sequence (P48775 whole entry): as above
PROPERTY: IC50 (nM)

Fc1ccc2c(-c3ccc4nc(CCN5CCNCC5)oc4c3)c[nH]c2c1 : 1630
NC(=O)NCc1nc2ccc(-c3c[nH]c4cc(F)ccc34)cc2o1 : 835
O=S(=O)(CCN1CCOCC1)NCc1nc2ccc(-c3c[nH]c4cc(F)ccc34)cc2o1 : 2800
NC(=O)Cn1ncc2ccc(-c3c[nH]c4cc(F)ccc34)cc21 : 946
Fc1ccc2c(-c3ccc4c(cnn4C4CCNCC4)c3)c[nH]c2c1 : 407

====

biological target: murine mastocytoma P815 cells overexpressing hTDO2 (Homo sapiens); experiment: Cellular assay for TDO2 activity, hTDO2-overexpressing P815 cells; conditions: P815 cells overexpressing hTDO2, overnight incubation, kynurenine in supernatant
pIC50: −log10 of the molar value.
PROPERTY: pIC50

CS(=O)(=O)N1CCN(Cc2nc3cc(-c4c[nH]c5cc(F)ccc45)ccc3[nH]2)CC1 [Compound 34] : 6.06
CN1CCN(Cc2nc3ccc(-c4c[nH]c5cc(F)ccc45)cc3o2)CC1 [Compound 68] : 7.11
CS(=O)(=O)CCc1nc2cc(-c3c[nH]c4cc(F)ccc34)ccc2[nH]1 [Compound 38] : 6.30
CS(=O)(=O)NCc1nc2ccc(-c3c[nH]c4cc(F)ccc34)cc2o1 [Compound 74] : 7.14
Fc1ccc2c(-c3ccc4ocnc4c3)c[nH]c2c1 [Compound 47] : 7.00
Cc1nc2cc(-c3c[nH]c4cc(F)ccc34)ccc2o1 [Compound 48] : 6.93
Fc1ccc2c(-c3ccc4nc(CN5CCOCC5)oc4c3)c[nH]c2c1 [Compound 66] : 6.69
CC(=O)NCc1nc2ccc(-c3c[nH]c4cc(F)ccc34)cc2o1 [Compound 75] : 7.04
CS(=O)(=O)NCCc1nc2ccc(-c3c[nH]c4cc(F)ccc34)cc2[nH]1 [Compound 37] : 5.81

====

We begin with a simple list: items and their reported IC50.
target: murine mastocytoma P815 cells overexpressing hTDO2 (Homo sapiens, UniProt P48775); experiment: Cellular assay for TDO2 activity, hTDO2-overexpressing P815 cells; details: P815 cells overexpressing hTDO2, overnight incubation, kynurenine in supernatant
Sequence (P48775 whole entry): as above
PROPERTY: IC50 (µM)

O=c1[nH]c2ccc(-c3c[nH]c4cc(F)ccc34)cc2[nH]1 : 0.109
NCC(=O)NCc1nc2ccc(-c3c[nH]c4cc(F)ccc34)cc2[nH]1 : 2.3
NC(=O)Cn1c(=O)oc2cc(-c3c[nH]c4cc(F)ccc34)ccc21 : 0.176
Fc1ccc2c(-c3ccc4nc(CN5CCNCC5)oc4c3)c[nH]c2c1 : 0.082
Cc1nc2cc(-c3c[nH]c4cc(F)ccc34)ccc2[nH]1 : 0.15
Fc1ccc2c(-c3ccc4nc(CN5CCNCC5)[nH]c4c3)c[nH]c2c1 : 0.622
Cc1nc2ccc(-c3c[nH]c4cc(F)ccc34)cc2o1 : 0.109

FYI, the data here is from patent US20150266857A1.
